Reference for the values: patent US20220017630A1

Target under test: T1, Human TNFR2 recombinant protein (Sino 10417-H08H) (human, UniProt P20333 23-257)
T1 construct: also called hTNFR2 (His tag)
T1 sequence (looked up): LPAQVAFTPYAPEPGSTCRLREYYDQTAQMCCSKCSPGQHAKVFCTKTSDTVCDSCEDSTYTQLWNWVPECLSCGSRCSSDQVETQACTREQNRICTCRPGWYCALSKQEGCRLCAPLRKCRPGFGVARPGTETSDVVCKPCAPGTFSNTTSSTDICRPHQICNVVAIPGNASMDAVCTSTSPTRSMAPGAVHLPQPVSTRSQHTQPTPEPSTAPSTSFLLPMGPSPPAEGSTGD
Assay remarks: SPR Biacore, antibody on Protein A chip, TNFR2 analyte
Experimental readout: koff (s⁻¹)
Output spec: scalar in s⁻¹, unitless text.

Please review the following examples before continuing.
TNFR2 antibody #219 (antibody, V domains shown) VH: EVQLQESGAELVRPGASVKLSCKASGYSFTNYWMNWVKQRPGQGLEWIGMIHPSDTETRLNQNFKDKATLTVDKSSSTSYMQLSSPTSEDSAVYYCARGEGLGAARSVSMDYWGQGTTVTVSS VL: DILMTQSPSSLSASLGDRVTISCRASQDISNYLNWYQQKPDGTVKVLIYYTAILHSGVPSRFSGSGSGTDYSLTISNLEQEDIATYFCQQGNTLPWTFGGGTKLEIK; 8.4e-05
TNFR2 antibody #125 (antibody, V domains shown) VH: EVQLQESGGGLVQPGGSLNLSCAASGFAFSIYDLSWVRQTPEKRLEWVAYINNGGISTYYSDTVKGRFTISRDNAKNTLYLQMSSLKSEDTAMYYCVRGPFYGSANYFDYWGQGTTVTVSS VL: DIQMTQSPASLSLSVGETVTITCRASENIYSNLAWYQQKQGKSPQLLVYDATKLAEGVPSRFSGSESGTQYSLKINSLQSEDFGTYYCQHFWVTPWTFGGGTKLEIK; 5.57e-05

koff in this record for TNFR2 antibody #395 (antibody, V domains shown) VH: EVQLQESGPVLVQPSQSLSITCTVSGFSLTSYSVHWVRQSPGKGLEWLGVIWSDGGTDYSAAFISRLSISKDNSKSQVFFKMNSLQADDTAIYYCARNDDGGDYAMDYWGQGTTVTVSS VL: EIVLTQSPALMSASPGEKVTMTCSASSSVSYMYWYQQKPRSSPKPWIYLTSNLASGVPARFSGSGSGTSYSLTISSMEAEDAATYYCQQWSSNPLTFGAGTKLEIK : 0.000237
